ASSAY NOTES: solvent given as SMILES
EXPERIMENTAL SETUP: in CC(C)OC(C)C
# key: entry, value: solvation free energy, 298 K
ATTRIBUTE MEASURED: solvation free energy, 298 K (kcal/mol)

> print(dat)
                           smiles.structure            attribute.measured  endpoint.unit  endpoint.result
1                    c1ccc2c(c1)Nc1ccccc1S2  solvation free energy, 298 K       kcal/mol            -12.8
2  O=C(O)c1cc([N+](=O)[O-])cc([N+](=O)[O-])c1  solvation free energy, 298 K       kcal/mol              -13
3                    c1ccc2c(c1)Cc1ccccc1O2  solvation free energy, 298 K       kcal/mol            -9.95
4                    O=c1c2ccccc2sc2ccccc12  solvation free energy, 298 K       kcal/mol            -11.6
5                                CC(C)(C)Cl  solvation free energy, 298 K       kcal/mol            -3.53
6                     CC(=O)Oc1ccccc1C(=O)O  solvation free energy, 298 K       kcal/mol            -12.4
7                O=C(C(=O)c1ccccc1)c1ccccc1  solvation free energy, 298 K       kcal/mol            -11.2
8              O=C(O)c1ccc([N+](=O)[O-])cc1  solvation free energy, 298 K       kcal/mol            -11.3

* * *

# key: entry, value: solvation free energy, 298 K
ASSAY NOTES: solvent given as SMILES
EXPERIMENTAL SETUP: in O
ATTRIBUTE MEASURED: solvation free energy, 298 K (kcal/mol)

> print(dat)
                           smiles.structure  endpoint.result
1                                      CCOC             -2.1
2                                   CCCCCBr             -0.1
3                    O=C(O)c1cccc(C(=O)O)c1            -11.3
4                    O=c1c2ccccc2sc2ccccc12             -6.9
5                                   CCOCOCC            -2.96
6  COC(=O)c1cc(OC)c(O)c(-c2cc(C(=O)OC)cc(OC)c2O)c1            -17.3
7                          CCCCCCCCCC(=O)OC            -1.91
8                  CCCCCCCCCCCCCCCCCCCCCCCC             5.24
9                                 Fc1ccccc1             -0.8

* * *

ASSAY NOTES: solvent given as SMILES
EXPERIMENTAL SETUP: in CCCCCl
# key: entry, value: solvation free energy, 298 K
ATTRIBUTE MEASURED: solvation free energy, 298 K

> print(dat)
                smiles.structure            attribute.measured  endpoint.result
 1                         ClCCl  solvation free energy, 298 K   -3.55 kcal/mol
 2                       CCCOCCC  solvation free energy, 298 K   -4.68 kcal/mol
 3                        ClCCCl  solvation free energy, 298 K   -4.42 kcal/mol
 4                            II  solvation free energy, 298 K   -5.63 kcal/mol
 5                     Cc1ccccc1  solvation free energy, 298 K   -5.16 kcal/mol
 6                      c1ccccc1  solvation free energy, 298 K   -4.46 kcal/mol
 7                     C1=CCCCC1  solvation free energy, 298 K   -4.37 kcal/mol
 8   CN(C)C(=O)Nc1ccc(Cl)c(Cl)c1  solvation free energy, 298 K   -13.3 kcal/mol
 9  c1ccc2c(c1)-c1cccc3cccc-2c13  solvation free energy, 298 K   -12.8 kcal/mol
10                      C1CCCCC1  solvation free energy, 298 K   -4.17 kcal/mol
11                       CC(C)CO  solvation free energy, 298 K   -4.41 kcal/mol
12                          CCBr  solvation free energy, 298 K   -3.51 kcal/mol
13                 ClC(Cl)(Cl)Cl  solvation free energy, 298 K   -4.28 kcal/mol
14                CC(C)CC(C)(C)C  solvation free energy, 298 K   -4.57 kcal/mol
15                   CC(C)OC(C)C  solvation free energy, 298 K   -4.18 kcal/mol
16    O=C(C(=O)c1ccccc1)c1ccccc1  solvation free energy, 298 K   -12.1 kcal/mol
17                       CCOCOCC  solvation free energy, 298 K   -4.67 kcal/mol
18                    Clc1ccccc1  solvation free energy, 298 K   -5.59 kcal/mol

* * *

ASSAY NOTES: solvent given as SMILES
EXPERIMENTAL SETUP: in CCCCCCCCC=CCCCCCCCC(=O)OCC(COC(=O)CCCCCCCC=CCCCCCCCC)OC(=O)CCCCCCCC=CCCCCCCCC
ATTRIBUTE MEASURED: solvation free energy, 298 K (kcal/mol)

> print(dat)
   smiles.structure  endpoint.result
1          C=CCCCCC            -4.07
2              CCCO            -3.96
3     ClC(Cl)(Cl)Cl               -4

* * *

ASSAY NOTES: solvent given as SMILES
EXPERIMENTAL SETUP: in O
solvation free energy, 298 K of -3 kcal/mol or higher: y. Under -3 kcal/mol: n.

> print(dat)
                                    compound  label.value
 1  CC(C)CCCCCCCOC(=O)c1ccccc1C(=O)OCCCCCCCC(C)C            n
 2                             O=S1(=O)CCCC1            n
 3                               CCC(C)(O)CC            n
 4                                    CN(C)C            n
 5                                      CCCO            n
 6                                       O=O            y
 7                           CCCCCCCCCCCCCCC            y
 8  CC12CCC(=O)C=C1CCC1C2C(O)CC2(C)C1CCC2(O)C(=O)CO (configuration not stated)            n
 9                               N#Cc1ccncc1            n
10                                 CCC(=O)CC            n
11                               CCc1ccccc1O            n
12                               ClCc1ccccc1            y
13  CCCN(CC1CC1)c1c([N+](=O)[O-])cc(C(F)(F)F)cc1[N+](=O)[O-]            y
14                   Nc1cccc([N+](=O)[O-])c1            n
15       Clc1cc(Cl)c(-c2cc(Cl)ccc2Cl)c(Cl)c1            y
16                           CCCCN(CCCC)CCCC            n
17                                    CCCC=O            n
18  C=C(C)C1CCC(C)C2=C(C1)C(C)CC2 (configuration not stated)            y
19                             CC(=O)N1CCCC1            n
20                               CCCCCCCCC=O            y
21  CC(C)CCCCCOC(=O)c1ccccc1C(=O)OCCCCCC(C)C            n
22  CCC(C)CCCC(C)CCCC(C)CCCC(C)C (configuration not stated)            y
23                                       CNC            n
24                                   CC(C)CO            n
25  CC1=CC2C(CC1)C2(C)C (configuration not stated)            y
26                                  COC(C)=O            n
27                                    CCCCCI            y
